assay: cn = amount concentration of the nth substance listed, in mol/dm3; settings: 303 K; 101 kPa; Liquid; Pycnometric method; c1 = 0.006
READOUT: mass density (kg/m3)
A number alone suffices; assume kg/m3.

Observe how each entry below is paired with its result.
CNc1ccccc1 [N-methylaniline] + C[S+](C)[O-] : 1090
Nc1ccccc1 [aniline] + C[S+](C)[O-] : 1090.7
Cc1ccccc1N [2-methylaniline] + C[S+](C)[O-] : 1090.5

Data request: Bench note: what mass density did O=C1C(Cl)=C(Cl)C(=O)C(Cl)=C1Cl [2,3,5,6-tetrachloro-p-benzoquinone] + C[S+](C)[O-] show?
Data returned: 1091.9

Data request: Now the compound CN(C)c1ccccc1 [N,N-dimethylaniline] + C[S+](C)[O-]
Data returned: 1090.7

Reference source: the NIST ThermoML archive (doi:10.1016/j.fluid.2013.09.026)
